Listing of recorded selectivity ratio by entry.
# assay: Selectivity index, ratio of CC50 for cytotoxicity against human HepG2 cells to IC50 for antileishmanial activity against Leishmania donovani MHOM/IN/80/Dd8 amastigotes harboring luciferase gene infected in mouse J774 cells
# Type: toxicity, cell-based
# experimental setup: read-out: Ratio CC50/IC50
Lab note: record just the number, no unit beside it.

INSERT INTO assay_data (compound, quantitative_result) VALUES
  ('CCCCCCCCCCCCCCCCOP(=O)([O-])OCC[N+](C)(C)C [MILTEFOSINE]', 12.8);

Query block: Need selectivity ratio, item "COc1ccc(-c2c3c(nc4ccc(OC)cc24)CN(C(C)(C)C(=O)NC(C)(C)C)C3=O)cc1"
Result block: 7.62

* * *

# assay: Aqueous solubility of the compound incubated for 24 hrs by shake flask method
# Type: physicochemical
# experimental setup: water
endpoint label: solubility thermodynamic at 24 h (µg/mL)
Express it in µg/mL; write the number only.

Query block: Need solubility thermodynamic at 24 h, item "COc1ccc(-c2c3c(nc4ccc(OC)cc24)CN(C(C)(C)C(=O)NC(C)(C)C)C3=O)cc1"
Result block: 157

* * *

Listing of recorded CC50 at 72 h by entry.
# assay: Cytotoxicity against mouse macrophage J774 cells assessed as inhibition of cell viability incubated for 72 hrs by MTT assay
# Type: toxicity, cell-based
Express it in µM; write the number only.

INSERT INTO measurements (compound, output_unit, quantitative_result) VALUES
  ('COc1ccc(-c2c3c(nc4ccc(OC)cc24)CN(C(C)(C)C(=O)NC(C)(C)C)C3=O)cc1', 'µM', 65.1);

Now for another entry.
Query block: Need CC50 at 72 h, item CCCCCCCCCCCCCCCCOP(=O)([O-])OCC[N+](C)(C)C [MILTEFOSINE]
Result block: 72.4

* * *

# assay: Metabolic stability in mouse liver microsomes assessed as parent compound remaining at 10 ug/ml incubated for 1 hrs in presence of NADPH by UPLC analysis
# Format: ADME, Microsome
# experimental setup: at 10 µg/mL, read-out: Stability
endpoint label: remaining at 1 h, 10 ug/ml (%)
Express it in %; write the number only.

Query block: Need remaining at 1 h, 10 ug/ml, item "COc1ccc(-c2c3c(nc4ccc(OC)cc24)CN(C(C)(C)C(=O)NC(C)(C)C)C3=O)cc1"
Result block: 86.8

* * *

Listing of recorded CC50 at 72 h by entry.
# assay: Cytotoxicity against human HepG2 cells assessed as inhibition of cell viability incubated for 72 hrs by MTT assay
# Type: toxicity, cell-based
Reply with the number and its unit after it.

INSERT INTO measurements (structure_notation, endpoint_label, result) VALUES
  ('CCCCCCCCCCCCCCCCOP(=O)([O-])OCC[N+](C)(C)C', 'CC50 at 72 h', '78.6 µM');

Now for another entry.
Query block: Need CC50 at 72 h, item "COc1ccc(-c2c3c(nc4ccc(OC)cc24)CN(C(C)(C)C(=O)NC(C)(C)C)C3=O)cc1"
Result block: 63.7 µM

* * *

# Test system: Leishmania mexicana
# assay: Antileishmanial activity against Leishmania mexicana 227 assessed as inhibition of parasite viability
# Assay type: functional, organism-based
endpoint label: IC50 (µM)
Express it in µM; write the number only.

Query block: Need IC50, item CCCCCCOc1c(OC)cc(NC(C)CCCN)c2nccc(C)c12 (stereo unspecified)
Result block: 2.5

* * *

# assay: Metabolic stability in mouse liver microsomes assessed as intrinsic clearance at 10 ug/ml measured per mg protein incubated for 1 hrs in presence of NADPH by UPLC analysis
# Type: ADME, Microsome
# experimental setup: dose 10 µg/ml, read-out: CLH
endpoint label: microsomal CLint at 10 ug/ml
Reply with the number and its unit after it.

Query block: Need microsomal CLint at 10 ug/ml, item "COc1ccc(-c2c3c(nc4ccc(OC)cc24)CN(C(C)(C)C(=O)NC(C)(C)C)C3=O)cc1"
Result block: 4.61 µL/min/mg

* * *

# assay: Stability of compound in SIF assessed as parent compound remaining at 10 ug/ml incubated for 2 hrs by UPLC analysis
# Type: ADME
# experimental setup: at 10 µg/mL, read-out: Stability
endpoint label: remaining at 2 h, 10 ug/ml (%)
Express it in %; write the number only.

Query block: Need remaining at 2 h, 10 ug/ml, item "COc1ccc(-c2c3c(nc4ccc(OC)cc24)CN(C(C)(C)C(=O)NC(C)(C)C)C3=O)cc1"
Result block: 85.5

* * *

# assay: Metabolic stability in mouse liver microsomes assessed as half life at 10 ug/ml incubated for 1 hrs in presence of NADPH by UPLC analysis
# Assay type: ADME, Microsome
# experimental setup: dose 10 µg/ml
endpoint label: half-life at 10 ug/ml (min)
Express it in min; write the number only.

Query block: Need half-life at 10 ug/ml, item "COc1ccc(-c2c3c(nc4ccc(OC)cc24)CN(C(C)(C)C(=O)NC(C)(C)C)C3=O)cc1"
Result block: 304

* * *

# assay: Stability of compound in SGF assessed as parent compound remaining at 10 ug/ml incubated for 2 hrs by UPLC analysis
# Type: ADME
# experimental setup: at 10 µg/mL, read-out: Stability
endpoint label: remaining at 2 h, 10 ug/ml (%)
Express it in %; write the number only.

Query block: Need remaining at 2 h, 10 ug/ml, item "COc1ccc(-c2c3c(nc4ccc(OC)cc24)CN(C(C)(C)C(=O)NC(C)(C)C)C3=O)cc1"
Result block: 87.5
